Target: T1, Recombinant Human CTLA-4-Fc Chimera (BioLegend) (human, UniProt P16410 36-161, limits assumed)
T1 construct: Bought reagent; also called hCTLA-4; hCTLA-4 immobilized; not shown: human IgG1 Fc
T1 sequence (looked up): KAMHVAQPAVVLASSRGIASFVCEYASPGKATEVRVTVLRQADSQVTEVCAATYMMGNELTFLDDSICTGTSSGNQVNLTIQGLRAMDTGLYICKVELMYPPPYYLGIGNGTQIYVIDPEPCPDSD
Experiment: SPR (Biacore), Fc-fused hCTLA-4 captured by anti-human IgG (Fc), scFv as analyte, single cycle kinetics
Description: The binding kinetic parameter of each hCTLA-4scFv01-FLAG purified to hCTLA-4 (fusion protein with human IgG1Fc) was measured by surface plasmon resonance using Biacore system (manufactured by GE Healthcare). […] Data obtained were analyzed by BIA evaluation software (manufactured by GE Healthcare). The binding kinetic parameter to hCTLA-4 (fusion protein with human IgG1Fc) was measured by surface plasmon resonance using Biacore system. […]
quantity_measured: Kd

{"binder": "anti-hCTLA-4scFv01 (not tagged) of single-expression strain C2TLB (scFv, Plasmid pC2TLB; PC2TL and PC7TL secrete the same scFv; Signal peptide SP67 left out; also called scFv derived from C2TLB strain; anti-hCTLA-4scFv01 in culture supernatants of PC2TL and PC7TL) scFv: AQVQLVESGGGVVQPGRSLRLSCAASGFTFSSYGMHWVRQAPGKGLEWVAVIWYDGSNKYYADSVKGRFTISRDNSKNTLYLQMNSLRAEDTAVYYCARDPRGATLYYYYYGMDVWGQGTTVTVSSGGGGSGGGGSGGGGSDIQMTQSPSSLSASVGDRVTITCRASQSINSYLDWYQQKPGKAPKLLIYAASSLQSGVPSRFSGSGSGTDFTLTISSLQPEDFATYYCQQYYSTPFTFGPGTKVEIK", "measurement": "0.98 nM"}
{"binder": "anti-hCTLA-4scFv01 (not tagged) of single-expression strain C3TLB (scFv, Plasmid pC3TLB; PC3TL, PC5TL and PC8TL secrete the same scFv; Signal peptide SP68 left out; also called scFv derived from C3TLB strain; anti-hCTLA-4scFv01 in culture supernatants of PC3TL, PC5TL and PC8TL) scFv: DQVQLVESGGGVVQPGRSLRLSCAASGFTFSSYGMHWVRQAPGKGLEWVAVIWYDGSNKYYADSVKGRFTISRDNSKNTLYLQMNSLRAEDTAVYYCARDPRGATLYYYYYGMDVWGQGTTVTVSSGGGGSGGGGSGGGGSDIQMTQSPSSLSASVGDRVTITCRASQSINSYLDWYQQKPGKAPKLLIYAASSLQSGVPSRFSGSGSGTDFTLTISSLQPEDFATYYCQQYYSTPFTFGPGTKVEIK", "measurement": "1.29 nM"}
{"binder": "anti-hCTLA-4scFv01 (not tagged) of single-expression strain C1TLB (scFv, Plasmid pC1TLB; PC4TL and PC6TL secrete the same scFv; Signal peptide SP50 left out; also called scFv derived from C1TLB strain; anti-hCTLA-4scFv01 in culture supernatants of PC4TL and PC6TL) scFv: ATLTPQVQLVESGGGVVQPGRSLRLSCAASGFTFSSYGMHWVRQAPGKGLEWVAVIWYDGSNKYYADSVKGRFTISRDNSKNTLYLQMNSLRAEDTAVYYCARDPRGATLYYYYYGMDVWGQGTTVTVSSGGGGSGGGGSGGGGSDIQMTQSPSSLSASVGDRVTITCRASQSINSYLDWYQQKPGKAPKLLIYAASSLQSGVPSRFSGSGSGTDFTLTISSLQPEDFATYYCQQYYSTPFTFGPGTKVEIK", "measurement": "1.48 nM"}
{"binder": "anti-hCTLA-4scFv01-FLAG purified from single-expression strain C3F (scFv, Plasmid pP30SP68L1-hCTLA-4scFv01-FLAG (pC3F); PC3, PC5 and PC8 secrete the same scFv; also called scFv derived from C3F strain) scFv: DQVQLVESGGGVVQPGRSLRLSCAASGFTFSSYGMHWVRQAPGKGLEWVAVIWYDGSNKYYADSVKGRFTISRDNSKNTLYLQMNSLRAEDTAVYYCARDPRGATLYYYYYGMDVWGQGTTVTVSSGGGGSGGGGSGGGGSDIQMTQSPSSLSASVGDRVTITCRASQSINSYLDWYQQKPGKAPKLLIYAASSLQSGVPSRFSGSGSGTDFTLTISSLQPEDFATYYCQQYYSTPFTFGPGTKVEIKDYKDDDDK", "measurement": "2.97 nM"}
{"binder": "anti-hCTLA-4scFv01-FLAG purified from single-expression strain C1F or from co-expression strain PC4 (scFv, Plasmid pP30SP50L5-hCTLA-4scFv01-FLAG (pC1F) and pPC4; PC4 and PC6 secrete the same scFv as C1F; Signal peptide SP50 left out; also called scFv derived from C1F strain; hCTLA-4scFv01-FLAG purified from PC4 strain) scFv: ATLTPQVQLVESGGGVVQPGRSLRLSCAASGFTFSSYGMHWVRQAPGKGLEWVAVIWYDGSNKYYADSVKGRFTISRDNSKNTLYLQMNSLRAEDTAVYYCARDPRGATLYYYYYGMDVWGQGTTVTVSSGGGGSGGGGSGGGGSDIQMTQSPSSLSASVGDRVTITCRASQSINSYLDWYQQKPGKAPKLLIYAASSLQSGVPSRFSGSGSGTDFTLTISSLQPEDFATYYCQQYYSTPFTFGPGTKVEIKDYKDDDDK", "measurement": "1.08 nM"}
{"binder": "anti-hCTLA-4scFv01-FLAG purified from single-expression strain C2F (scFv, Plasmid pP30SP67L1-hCTLA-4scFv01-FLAG (pC2F); PC2 and PC7 secrete the same scFv; Signal peptide SP67 left out; also called scFv derived from C2F strain) scFv: AQVQLVESGGGVVQPGRSLRLSCAASGFTFSSYGMHWVRQAPGKGLEWVAVIWYDGSNKYYADSVKGRFTISRDNSKNTLYLQMNSLRAEDTAVYYCARDPRGATLYYYYYGMDVWGQGTTVTVSSGGGGSGGGGSGGGGSDIQMTQSPSSLSASVGDRVTITCRASQSINSYLDWYQQKPGKAPKLLIYAASSLQSGVPSRFSGSGSGTDFTLTISSLQPEDFATYYCQQYYSTPFTFGPGTKVEIKDYKDDDDK", "measurement": "2.28 nM"}
